assay: Solubilization of additional guests by two different hosts; format: physicochemical; conditions: water containing solubilising hosts, aqueous with cosolvent or surfactant or cyclodextrin, thermodynamic from solid, host combination TRIMEA - TRIMEB, water
reportedProperty: solubility at 1 week
Reply with the number, then its unit.

Please list solubility at 1 week recorded for the compound CC1=C(/C=C/C(C)=C/C=C/C(C)=C/C(=O)O)C(C)(C)CCC1
0.012 mg/mL

---

Assay: Solubilization of FTS by two different hosts in water (equilibration for a week, filtration, UV spectrophotometry)
Format: physicochemical
Conditions: aqueous host solution, aqueous with cosolvent or surfactant or cyclodextrin, thermodynamic from solid, hosts DIMEB - TRIMEB, each 5% in water
Description: no enhancement with two hosts. Water was used as the solvent for all data in the Table for Example 1. […] Cooperativity, in this case, could not be calculated since, in these conditions, even solubilization by one component alone (DIMEB or Pitha methyl derivative) was over 60 mg per ml.
reportedProperty: solubility at 1 week (µg/mL)
# unit: µg/mL | format: bare number

Check the records and state solubility at 1 week for CC(C)=CCCC(C)=CCCC(C)=CCSc1ccccc1C(=O)O
2600

---

experiment: Solubilization of FTS by two different hosts in water (equilibration for a week, filtration, UV spectrophotometry); type: physicochemical; conditions: aqueous host solution, aqueous with cosolvent or surfactant or cyclodextrin, thermodynamic from solid, hosts Alpha Cyclodextrin - TRIMEB, each 5% in water
reportedProperty: solubility at 1 week

Tell us which solubility at 1 week value is on record for CC(C)=CCCC(C)=CCCC(C)=CCSc1ccccc1C(=O)O [FTS, S-farnesylthiosalicylic acid]
100 µg/mL

---

experiment: Solubilization of FTS by two different hosts in water (equilibration for a week, filtration, UV spectrophotometry); assay type: physicochemical; settings: aqueous host solution, aqueous with cosolvent or surfactant or cyclodextrin, thermodynamic from solid, hosts DIMEB - PERM HPBCD, each 5% in water
reportedProperty: solubility at 1 week (µg/mL)
Number only, in µg/mL; omit the unit.

Could you please provide reported solubility at 1 week for CC(C)=CCCC(C)=CCCC(C)=CCSc1ccccc1C(=O)O ? Thanks!
1100

---

experiment: Solubilization of FTS by two different hosts in water (equilibration for a week, filtration, UV spectrophotometry); assay type: physicochemical; conditions: aqueous host solution, aqueous with cosolvent or surfactant or cyclodextrin, thermodynamic from solid, hosts TRIMEA - DIMEB, each 5% in water
reportedProperty: solubility at 1 week

Specify measured solubility at 1 week for CC(C)=CCCC(C)=CCCC(C)=CCSc1ccccc1C(=O)O .
6.6 mg/mL

---

assay: Solubilization of FTS by two different hosts in water (equilibration for a week, filtration, UV spectrophotometry); type: physicochemical; conditions: aqueous host solution, aqueous with cosolvent or surfactant or cyclodextrin, thermodynamic from solid, hosts DIMEB - TRIMEG, each 5% in water
reportedProperty: solubility at 1 week (µg/mL)
Please give a number only; it is taken to be in µg/mL.

Identify measured solubility at 1 week corresponding to CC(C)=CCCC(C)=CCCC(C)=CCSc1ccccc1C(=O)O
1400

---

test: Solubilization of FTS by two different hosts in water (equilibration for a week, filtration, UV spectrophotometry); format: physicochemical; settings: aqueous host solution, aqueous with cosolvent or surfactant or cyclodextrin, thermodynamic from solid, hosts TRIMEA - Pitha Methyl 258, each 5% in water
reportedProperty: solubility at 1 week (µg/mL)
Lab book: enter the figure in µg/mL, no units written.

Respond only with solubility at 1 week recorded for CC(C)=CCCC(C)=CCCC(C)=CCSc1ccccc1C(=O)O
5700

---

assay: Solubilization of FTS by two different hosts in water (equilibration for a week, filtration, UV spectrophotometry); format: physicochemical; conditions: aqueous host solution, aqueous with cosolvent or surfactant or cyclodextrin, thermodynamic from solid, hosts G2 - DIMEB, each 5% in water
reportedProperty: solubility at 1 week (µg/mL)
Just the number in µg/mL, nothing appended.

Specify solubility at 1 week for CC(C)=CCCC(C)=CCCC(C)=CCSc1ccccc1C(=O)O and stop.
2400

---

assay: Solubilization of additional guests by two different hosts; assay type: physicochemical; settings: water containing solubilising hosts, aqueous with cosolvent or surfactant or cyclodextrin, thermodynamic from solid, host combination TRIMEA - Pitha Methyl 258, water
reportedProperty: solubility at 1 week (µg/mL)
Enter your answer as a number in µg/mL; do not include the unit.

Give recorded solubility at 1 week. CC1=C(/C=C/C(C)=C/C=C/C(C)=C/C(=O)O)C(C)(C)CCC1
52

---

assay: Solubilization of FTS by two different hosts in water (equilibration for a week, filtration, UV spectrophotometry); type: physicochemical; conditions: aqueous host solution, aqueous with cosolvent or surfactant or cyclodextrin, thermodynamic from solid, hosts Pitha Methyl 258 - TRIMEB, each 5% in water
reportedProperty: solubility at 1 week (µg/mL)
Write the answer as a number in µg/mL, unit excluded.

Determine its reported solubility at 1 week: CC(C)=CCCC(C)=CCCC(C)=CCSc1ccccc1C(=O)O
950

---

assay: Solubilization of FTS by two different hosts in water (equilibration for a week, filtration, UV spectrophotometry); type: physicochemical; settings: aqueous host solution, aqueous with cosolvent or surfactant or cyclodextrin, thermodynamic from solid, hosts Beta Cyclodextrin - TRIMEB, each 5% in water
reportedProperty: solubility at 1 week (µg/mL)
Please state the figure in µg/mL; there is no need to write the unit.

Give the reported value of solubility at 1 week for this record: CC(C)=CCCC(C)=CCCC(C)=CCSc1ccccc1C(=O)O
26

---

assay: physchem; conditions: aqueous with cosolvent or surfactant or cyclodextrin, thermodynamic from solid, Solubility
reportedProperty: solubility at 1 week (µg/mL)
Value expressed in µg/mL; do not type the unit.

Determine from records and report solubility at 1 week for CC(=O)O[C@H]1C(=O)[C@@]2(C)[C@H]([C@H](OC(=O)c3ccccc3)[C@]3(O)C[C@H](OC(=O)[C@H](O)[C@@H](NC(=O)c4ccccc4)c4ccccc4)C(C)=C1C3(C)C)[C@]1(OC(C)=O)CO[C@@H]1C[C@@H]2O
290

---

experiment: Solubilization of additional guests by two different hosts; type: physicochemical; settings: water containing solubilising hosts, aqueous with cosolvent or surfactant or cyclodextrin, thermodynamic from solid, host combination TRIMEA - RAMEB, water
reportedProperty: solubility at 1 week (µg/mL)
// note: answer is a bare numeric in µg/mL

Please report solubility at 1 week for the following compound: CC1=C(/C=C/C(C)=C/C=C/C(C)=C/C(=O)O)C(C)(C)CCC1
56

---

test: Solubilization of FTS by two different hosts in water (equilibration for a week, filtration, UV spectrophotometry); format: physicochemical; settings: aqueous host solution, aqueous with cosolvent or surfactant or cyclodextrin, thermodynamic from solid, hosts Pitha Methyl 322 - DIMEB, each 5% in water
reportedProperty: solubility at 1 week (µg/mL)
Give the number; µg/mL is assumed, so skip it.

Name the recorded solubility at 1 week of the compound listed here: CC(C)=CCCC(C)=CCCC(C)=CCSc1ccccc1C(=O)O [FTS, S-farnesylthiosalicylic acid]
1300

---

test: Solubilization of FTS by two different hosts in water (equilibration for a week, filtration, UV spectrophotometry); assay type: physicochemical; settings: aqueous host solution, aqueous with cosolvent or surfactant or cyclodextrin, thermodynamic from solid, hosts TRIMEA - G2, each 5% in water
reportedProperty: solubility at 1 week

Could you please provide reported solubility at 1 week for CC(C)=CCCC(C)=CCCC(C)=CCSc1ccccc1C(=O)O [FTS, S-farnesylthiosalicylic acid] ? Thanks!
3900 µg/mL
